molecular target: UniProt Q96KS0; test: HIF-PH assay (14CO2 capture), PHD1 enzyme inhibition; format: biochemical; settings: Table 1; individual measurement; read-out: IC50 (μM) PHD1
measurement_label: IC50 (µM)

{"molecule": "O=C(NCC(C(=O)O)C1CC1)c1ncc2cc(Oc3ccccc3)ccc2c1O (stereo not drawn)", "system": "UniProt Q96KS0", "IC50 [µM]": 9.57}
{"molecule": "CC(C)(CCCNC(=O)c1nc(C#N)c2cc(Oc3ccccc3)ccc2c1O)C(=O)O", "system": "UniProt Q96KS0", "IC50 [µM]": 0.74}
{"molecule": "N#Cc1nc(C(=O)NC(CC(=O)O)c2cccc(Cl)c2)c(O)c2ccc(Oc3ccccc3)cc12 (stereo not drawn)", "system": "UniProt Q96KS0", "IC50 [µM]": 1.51}

(I) O=C(O)CCNC(=O)c1ncc2cc(NC(=O)Nc3ccccc3)ccc2c1O
(II) CC(C)(CNC(=O)c1nc(C#N)c2cc(Oc3ccc(Cl)cc3)ccc2c1O)C(=O)O
query: Please indicate which item has the smaller measured IC50: I versus II Identify your pick by its label.
result: II
(II: 0.3 µM, I: 3.34 µM)

---

Molecular target: UniProtKB Q96KS0
Assay: HIF-PH assay (14CO2 capture), PHD1 enzyme inhibition
Assay type: biochemical
Conditions: Table 1; individual measurement; read-out: IC50 (μM) PHD1
Description: Ketoglutaric acid α-[1-^14C]-sodium salt, alpha-ketoglutaric acid sodium salt, and HPLC purified peptide may be obtained from commercial sources, e.g., Perkin-Elmer (Wellesley Mass.), Sigma-Aldrich, and SynPep Corp. (Dublin Calif.), respectively. […] Enzyme activity is determined by capturing ^14CO2 using an assay described by Kivirikko and Myllyla (1982, Methods Enzymol. 82:245-304). […]
measurement_label: IC50 (µM)

{"molecule": "CC(C)(CNC(=O)c1nc(C#N)c2cc(Sc3ccccc3)ccc2c1O)C(=O)O", "IC50 (µM)": 0.84}
{"molecule": "N#Cc1nc(C(=O)NC[C@H](N)C(=O)O)c(O)c2ccc(Oc3ccccc3)cc12", "IC50 (µM)": 2.51}
{"molecule": "N#Cc1nc(C(=O)N[C@@H](CO)CC(=O)O)c(O)c2ccc(Oc3ccccc3)cc12", "IC50 (µM)": 6.67}
{"molecule": "C[C@H](CC(=O)O)NC(=O)c1nc(C#N)c2cc(Oc3ccccc3)ccc2c1O", "IC50 (µM)": 0.93}

(A) O=C(NCC(C(=O)O)c1ccccc1)c1ncc2cc(Oc3ccccc3)ccc2c1O (stereo not shown)
(B) N#Cc1nc(C(=O)N[C@H](Cc2ccccc2)[C@@H](O)C(=O)O)c(O)c2ccc(Oc3ccccc3)cc12
(C) C[C@H](NC(=O)c1nc(C#N)c2cc(Oc3ccccc3)ccc2c1O)[C@@H](C)C(=O)O
(D) N#Cc1nc(C(=O)NCC[C@H](O)C(=O)O)c(O)c2ccc(Oc3ccccc3)cc12
query: I would appreciate it if you could sort these 4 molecules by IC50, starting from the smallest number. When ranking, write the labels in the order the request describes.
result: D, B, C, A

(a) N#Cc1nc(C(=O)NCC2(C(=O)O)CC[S+]([O-])CC2)c(O)c2ccc(Oc3ccccc3)cc12 (stereo not shown)
(b) O=C(O)CCCNC(=O)c1ncc2cc(NC(=O)c3ccc(F)cc3)ccc2c1O
(c) CC(C)(CNC(=O)c1nc(C#N)c2cc(Oc3ccccc3)ccc2c1O)C(=O)O
(d) O=C(O)CCNC(=O)c1ncc2cc(NC(=O)c3ccc(F)cc3)ccc2c1O
(e) N#Cc1nc(C(=O)NCC(C(=O)O)C2CC2)c(O)c2ccc(Oc3ccccc3F)cc12 (stereo not shown)
query: Sort by IC50, descending. When ranking, write the labels in the order the request describes.
result: a, b, d, e, c

---

target: PHD1 (EGLN2) (Homo sapiens (Human), UniProt Q96KS0); assay: HIF-PH assay (14CO2 capture), PHD1 enzyme inhibition; type: biochemical; conditions: Table 1; ratio of the IC50 of the compound for each enzyme
Sequence (Q96KS0 whole entry): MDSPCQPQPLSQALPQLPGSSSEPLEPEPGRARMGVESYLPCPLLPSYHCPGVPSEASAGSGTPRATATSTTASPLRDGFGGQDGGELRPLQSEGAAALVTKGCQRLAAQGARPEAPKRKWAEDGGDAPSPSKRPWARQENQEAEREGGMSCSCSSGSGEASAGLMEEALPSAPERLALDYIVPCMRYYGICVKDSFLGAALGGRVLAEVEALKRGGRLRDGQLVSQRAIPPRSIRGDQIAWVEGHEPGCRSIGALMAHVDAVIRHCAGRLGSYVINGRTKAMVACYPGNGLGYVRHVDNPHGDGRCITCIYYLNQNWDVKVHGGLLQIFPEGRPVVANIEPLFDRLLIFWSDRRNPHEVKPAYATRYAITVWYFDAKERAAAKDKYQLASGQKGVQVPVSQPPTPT
measurement_label: PHD2/PHD1

{"molecule": "N#Cc1ccc([C@H](CC(=O)O)NC(=O)c2nc(C#N)c3cc(Oc4ccccc4)ccc3c2O)cc1", "PHD2/PHD1": 10}
{"molecule": "N#Cc1nc(C(=O)NCC2(CC(=O)O)CCCCC2)c(O)c2ccc(Oc3ccccc3)cc12", "PHD2/PHD1": 10}
{"molecule": "N#Cc1nc(C(=O)NC[C@H](NC(=O)OCc2ccccc2)C(=O)O)c(O)c2ccc(Oc3ccccc3)cc12", "PHD2/PHD1": 8}
{"molecule": "O=C(O)CCCNC(=O)c1ncc2cc(NC(=O)NCc3ccccc3)ccc2c1O", "PHD2/PHD1": 6}

(I) CC(C)(CCNC(=O)c1nc(C#N)c2cc(Oc3ccccc3)ccc2c1O)C(=O)O
(II) N#Cc1nc(C(=O)N[C@H](Cc2ccccc2)[C@@H](O)C(=O)O)c(O)c2ccc(Oc3ccccc3)cc12
(III) N#Cc1nc(C(=O)NCC(C(=O)O)C2CC2)c(O)c2ccc(Oc3ccccc3)cc12 (centres unmarked)
query: I would appreciate it if you could sort these 3 molecules by PHD2/PHD1, starting from the smallest number. When ranking, write the labels in the order the request describes.
result: I, II, III

---

molecular target: PHD1 (EGLN2) (Homo sapiens (Human), UniProt Q96KS0); test: HIF-PH assay (14CO2 capture), PHD1 enzyme inhibition; type: biochemical; details: Table 1; individual measurement; read-out: IC50 (μM) PHD1
measurement_label: IC50 (µM)

{"structure": "N#Cc1nc(C(=O)NCC2(C(=O)O)CCOCC2)c(O)c2ccc(Oc3ccccc3)cc12", "IC50 / µM": 1.89}
{"structure": "CC(C)(CNC(=O)c1nc(C#N)c2cc(-c3ccccc3)ccc2c1O)C(=O)O", "IC50 / µM": 1.13}
{"structure": "CC(C)(CNC(=O)c1nc(C#N)c2cc(Oc3ccc(F)cc3Cl)ccc2c1O)C(=O)O", "IC50 / µM": 0.29}
{"structure": "O=C(O)CCCCNC(=O)c1ncc2cc(Nc3ccccc3)ccc2c1O", "IC50 / µM": 25.4}
{"structure": "CC(C)(CNC(=O)c1nc(C#N)c2ccc(Oc3ccccc3)cc2c1O)C(=O)O", "IC50 / µM": 6.11}

(P) N#Cc1nc(C(=O)NC[C@@H](O)CC(=O)O)c(O)c2ccc(Oc3ccccc3)cc12
(Q) C[C@@H](CC(=O)O)NC(=O)c1nc(C#N)c2cc(Oc3ccccc3)ccc2c1O
(R) O=C(O)CCNC(=O)c1ncc2cc(S(=O)(=O)C3CCCCC3)ccc2c1O
query: Sort by IC50, descending. When ranking, write the labels in the order the request describes.
result: Q, R, P
(Q: 3.27 µM, R: 0.35 µM, P: 0.23 µM)

(A) N#Cc1nc(C(=O)NC2(CC(=O)O)CCCCC2)c(O)c2ccc(Oc3ccccc3)cc12
(B) O=C(O)CCNC(=O)c1nc(C(F)(F)F)c2cc(Oc3ccccc3)ccc2c1O
(C) COc1ccc(Oc2ccc3c(O)c(C(=O)NCC(C)(C)C(=O)O)ncc3c2)cc1
query: I would appreciate it if you could sort these 3 compounds by IC50, starting from the smallest number. When ranking, write the labels in the order the request describes.
result: C, A, B

---

biological target: PHD1 (EGLN2) (Homo sapiens (Human), UniProt Q96KS0); assay: HIF-PH assay (14CO2 capture), PHD1 enzyme inhibition; assay type: biochemical; conditions: Table 1; individual measurement; read-out: IC50 (μM) PHD1
measurement_label: IC50 (µM)

As a guide, the following entries are already answered.
{"compound": "CC(C)(CNC(=O)c1nc(C#N)c2cc(Oc3ccccc3Cl)ccc2c1O)C(=O)O [Compound 38]", "system": "PHD1 (EGLN2) (Homo sapiens (Human), UniProt Q96KS0)", "IC50 (µM)": 0.24}
{"compound": "N#Cc1nc(C(=O)N[C@@H](CC(=O)O)c2ccccc2)c(O)c2ccc(Oc3ccccc3)cc12 [Compound 47]", "system": "PHD1 (EGLN2) (Homo sapiens (Human), UniProt Q96KS0)", "IC50 (µM)": 1.28}
{"compound": "CC(C)(CNC(=O)c1ncc2cc(Sc3ccccc3)ccc2c1O)C(=O)O [Compound 127]", "system": "PHD1 (EGLN2) (Homo sapiens (Human), UniProt Q96KS0)", "IC50 (µM)": 7.69}

(1) CCc1ccccc1Oc1ccc2c(O)c(C(=O)NCC(C)(C)C(=O)O)nc(C#N)c2c1 [Compound 62]
(2) C[C@](O)(CNC(=O)c1nc(C#N)c2cc(Oc3ccccc3)ccc2c1O)C(=O)O [Compound 73]
(3) CC(C)(CNC(=O)c1ncc2cc(Oc3ccccc3)ccc2c1O)C(=O)O [Compound 2]
query: Sort by IC50, descending. When ranking, write the labels in the order the request describes.
result: 3, 2, 1

(1) N#Cc1c2cc(Oc3ccccc3)ccc2c(O)c(C(=O)NCCCC(=O)O)[n+]1[O-] [Compound 158]
(2) Cc1ccccc1Oc1ccc2c(C#N)nc(C(=O)NCC(C)(C)C(=O)O)c(O)c2c1 [Compound 155]
query: Please indicate which item has the smaller measured IC50: 1 versus 2 Identify your pick by its label.
result: 1
